These measurements were taken from ChEMBL document CHEMBL3988442.

Target: AMP-activated protein kinase, AMPK (Homo sapiens) (UniProt P54646+O43741+P54619+Q9UGJ0+Q9Y478+Q13131+Q9UGI9)
Experiment: AMP-dependent Kinase enzyme assay. An in vitro enzyme assay that detects ADP turnover that is directly proportional to AMPK activity. This uses naive AMPK that is activated during the assay with MK-8722
Format: functional
Design: scale not given: direction of the effect not stated beside the values
Settings: 30 µM
Items are presented alongside their recorded Percent Effect.
Provide only the numeric value, understood in %.

O=C(NCC1CC1)N1CCN(Cc2ccc3c(c2)OCCO3)CC1 :: 1.09

Lab note: CCOC(=O)[C@]12CCCN(Cc3nccs3)C[C@H]1CN(C(C)=O)C2 gave Percent Effect of -1.96

Percent Effect in this record for CCc1n[nH]c(C2CN(C(=O)CCc3cccs3)CCO2)n1 (configuration not stated) : -4.01

###

Target: AMP-activated protein kinase, AMPK (Homo sapiens) (UniProt P54646+O43741+P54619+Q9UGJ0+Q9Y478+Q13131+Q9UGI9)
Experiment: AMP-dependent Kinase enzyme assay. An in vitro enzyme assay that detects ADP turnover that is directly proportional to AMPK activity. This uses naive AMPK that is activated during the assay with MK-8722
Type: functional
Design: scale not given: direction of the effect not stated beside the values
Details: 30 µM
OBSERVABLE: Percent Effect (%)
Write it as a number; the unit % goes unstated.

Below, each entry is followed by its recorded Percent Effect result.
Cc1[nH]ccc1C(=O)N1CCC(c2nnc(Cn3cccn3)n2C)CC1 :: -3.04
CN(CC1CN(Cc2cn3ccsc3n2)CCO1)c1cccnn1 (configuration not stated) :: -3.91
CC(O)CN1CCC(CNCc2cccc(C(N)=O)c2)CC1 (configuration not stated) :: -22.5

Recorded Percent Effect (compound Cc1cc(CNC(=O)N2CCCN(Cc3ccccc3)CC2)no1 ): -1.73

Form: compound = Cc1cnn(CC2CCCCN2C(=O)c2cc(C(N)=O)cs2)c1 (configuration not stated) ; Percent Effect = 1.77

# Percent Effect of CN(C)C(C(=O)N1CCCC1)c1ccccc1F (configuration not stated) = 3.5

Form field Percent Effect, entry CCSc1cc(C(=O)NCc2ccccc2O)ccn1 : 5.33

# compound CCn1nc(C)c2ccn(CC(=O)NC3CCCC3)c(=O)c21 ; its Percent Effect = 58

compound CCc1nc(CN(C(C)=O)C2CCN(Cc3cnc(C)cn3)C2)no1 (configuration not stated) , Percent Effect observed: -8.69

For this compound ( CSCC(=O)N1CCCN(c2ccccc2C)CC1 ), measured Percent Effect is -2.83

The compound identified as O=S(=O)(NCC1(O)CCOc2ccccc21)c1ccc(Br)s1 (configuration not stated) registered its Percent Effect at 6.4

# compound O=C(NCCNc1ncccn1)N(Cc1ccc(F)cc1F)C1CC1 ; its Percent Effect = -4.4

###

Test system: Trypanosoma cruzi
Experiment: Trypanosoma cruzi phosphomannomutase and mannose-1-phosphate guanylyltransferase assay
Format: functional
Design: scale not given: direction of the effect not stated beside the values
Settings: 10 µM
Measured Percent Effect accompanies every entry in the list below.
A bare number is not enough; add the unit after it.

Sample records with Percent Effect:
CN(C)C1CCN(C(=O)NCc2ccccc2Cn2cncn2)CC1 :: 7.72%
Cc1cc(C)n(CC2CCCN2CC(=O)NC2CCOCC2)n1 (configuration not stated) :: -3.93%
CC1N(CC2CC2)C(=O)COC12CCN(Cc1nccs1)CC2 (configuration not stated) :: 5.56%
CCN(Cc1ccccc1)C(=O)CN1CCCC(Cn2cncn2)C1 (configuration not stated) :: 3.64%

Percent Effect in this record for O=C(CCc1ccccc1)NCC1CCN(Cc2ccsc2)CC1 : -5.62%

Recorded Percent Effect (compound CCC(=O)N(C)CC(=O)Nc1ccc(Br)cn1 ): -4.22%

Looking up COCCn1ccc(=O)c(OCC(=O)Nc2cccc(C(C)=O)c2)c1C , I see its Percent Effect listed as 0.982%

Percent Effect measured on CCOCC(O)CN1CCN(C(=O)C2CC2)CC1 (configuration not stated) = 1.04%

Entry CC(C)n1ccnc1C1CCN(Cc2ccc(Cl)c(F)c2)CC1 — recorded Percent Effect = 0.885%

Entry CC(C)c1noc(CCCC(=O)N2CCC(Cc3cccnc3)CC2)n1 , Percent Effect reported as -6.14%

In plain terms, CC(C)(C)C(=O)Cn1nc(-c2ccccc2F)ccc1=O has a documented Percent Effect of 0.393%

In plain terms, COc1ccc2c(c1)OC1(CCN(Cc3ccc(F)cc3)CC1)CC2=O has a documented Percent Effect of 2.63%

Given item CN(C)Cc1ccc(C2CCCCN2C(=O)c2cccc(CO)n2)cc1 (configuration not stated) , the value recorded as its Percent Effect is 9.8%

Record Cc1cc(C)nc(Nc2cccc(C3CCCN(C)C3)n2)n1 (configuration not stated) , field Percent Effect: 2.77%

The reported value for Cc1ccc(F)c(-n2nnc(C(=O)O)c2-c2ccncc2)c1 in terms of Percent Effect is -3.8%

Lab note: Cc1csc([C@@H]2C[C@@H]3CCN(Cc4cnn(C)c4)C[C@H]3O2)n1 gave Percent Effect of -0.0983%

// field: Percent Effect; key: O=C(c1nn(-c2ccccc2F)cc1O)N1CCCC1 ; value = -3.62%
